# Tested on: L1210 leukemia ip in BDF1 mice, survival T/C
# experimental protocol: NCI In Vivo Anticancer Drug Screen. Data for tumor model L1210 Leukemia (intraperitoneal) in B6D2F1 (BDF1) mice
# condition info: endpoint: mean survival time; dose: 50.0 mg/kg/injection; schedule: Q04DX002 (ip); vehicle: Klucel (hydroxypropylcellulose) (HPC); higher = longer survival
Toxic doses and inconclusive results are not listed.
measured attribute: T/C

[[record]]
compound = "CCCCCCCCCCCCCCCCCCNC(=O)c1c(Br)c(Br)cc(Br)c1C(=O)O"
measured_attribute = "T/C"
result = "93 % of control"

[[record]]
compound = "O=[N+]([O-])c1cc2cc(Br)ccc2o1"
measured_attribute = "T/C"
result = "97 % of control"

[[record]]
compound = "NC(=S)N/N=C/c1cccn1-c1ccc2ncccc2c1[N+](=O)[O-]"
measured_attribute = "T/C"
result = "93 % of control"

[[record]]
compound = "CN1C=CC(=Cc2ccccc2)C=C1"
measured_attribute = "T/C"
result = "107 % of control"

[[record]]
compound = "COC(=O)N1C=CC2C=CC1C(C#N)(C#N)C2(C#N)C#N (stereo not drawn)"
measured_attribute = "T/C"
result = "110 % of control"

[[record]]
compound = "CC(C)(C)NC(=O)NC(C)(C)C"
measured_attribute = "T/C"
result = "95 % of control"

[[record]]
compound = "Nc1nc(NCCCc2ccccc2)c2[nH]cnc2n1"
measured_attribute = "T/C"
result = "102 % of control"

[[record]]
compound = "CN(/C(N)=N/[N+](=O)[O-])c1cccnc1"
measured_attribute = "T/C"
result = "95 % of control"

[[record]]
compound = "N#C/C(=C\\c1cccc2ccccc12)c1ccccc1"
measured_attribute = "T/C"
result = "98 % of control"

[[record]]
compound = "O=Cc1c(Cl)n(C(=O)c2ccccc2)c2ccccc12"
measured_attribute = "T/C"
result = "90 % of control"

[[record]]
compound = "C=CCN1C(=O)C2C3C=CC(C3)C2C1=O (stereo not drawn)"
measured_attribute = "T/C"
result = "117 % of control"

[[record]]
compound = "CCCC(=O)NC1Cc2cc(C)cc(C)c21 (stereo not drawn)"
measured_attribute = "T/C"
result = "100 % of control"

[[record]]
compound = "NC(=Nc1ccccc1)c1ccc(Cl)cc1"
measured_attribute = "T/C"
result = "97 % of control"

